# EB05 VA listing for each entry below
assay details: FAERS disproportionality analysis
condition details: FAERS Nov 1997 to March 31, 2015; ventricular arrhythmia; EB05 > 2 = signal

[
  {
    "compound": "CC(C)(C)c1ccc(C(O)CCCN2CCC(C(O)(c3ccccc3)c3ccccc3)CC2)cc1 (stereo not shown)",
    "EB05 VA": 3.085
  },
  {
    "compound": "O=c1[nH]c2ccccc2n1CCCN1CCC(n2c(=O)[nH]c3cc(Cl)ccc32)CC1",
    "EB05 VA": 1.455
  },
  {
    "compound": "CCCCCCCN(CC)CCCC(O)c1ccc(NS(C)(=O)=O)cc1 (stereo not shown) [IBUTILIDE]",
    "EB05 VA": 2.901
  },
  {
    "compound": "CC[C@H]1OC(=O)[C@H](C)[C@@H](O[C@H]2C[C@@](C)(OC)[C@@H](O)[C@H](C)O2)[C@H](C)[C@@H](O[C@@H]2O[C@H](C)C[C@H](N(C)C)[C@H]2O)[C@](C)(OC)C[C@@H](C)C(=O)[C@H](C)[C@@H](O)[C@]1(C)O",
    "EB05 VA": 1.898
  }
]
